These measurements were taken from patent US9212173B2.

Kindly state pKi for each of the entries shown.
- system-under-test: LRRK2 (Homo sapiens (Human), UniProt Q5S007, G2019S)
- Sequence (Q5S007 whole entry G2019S): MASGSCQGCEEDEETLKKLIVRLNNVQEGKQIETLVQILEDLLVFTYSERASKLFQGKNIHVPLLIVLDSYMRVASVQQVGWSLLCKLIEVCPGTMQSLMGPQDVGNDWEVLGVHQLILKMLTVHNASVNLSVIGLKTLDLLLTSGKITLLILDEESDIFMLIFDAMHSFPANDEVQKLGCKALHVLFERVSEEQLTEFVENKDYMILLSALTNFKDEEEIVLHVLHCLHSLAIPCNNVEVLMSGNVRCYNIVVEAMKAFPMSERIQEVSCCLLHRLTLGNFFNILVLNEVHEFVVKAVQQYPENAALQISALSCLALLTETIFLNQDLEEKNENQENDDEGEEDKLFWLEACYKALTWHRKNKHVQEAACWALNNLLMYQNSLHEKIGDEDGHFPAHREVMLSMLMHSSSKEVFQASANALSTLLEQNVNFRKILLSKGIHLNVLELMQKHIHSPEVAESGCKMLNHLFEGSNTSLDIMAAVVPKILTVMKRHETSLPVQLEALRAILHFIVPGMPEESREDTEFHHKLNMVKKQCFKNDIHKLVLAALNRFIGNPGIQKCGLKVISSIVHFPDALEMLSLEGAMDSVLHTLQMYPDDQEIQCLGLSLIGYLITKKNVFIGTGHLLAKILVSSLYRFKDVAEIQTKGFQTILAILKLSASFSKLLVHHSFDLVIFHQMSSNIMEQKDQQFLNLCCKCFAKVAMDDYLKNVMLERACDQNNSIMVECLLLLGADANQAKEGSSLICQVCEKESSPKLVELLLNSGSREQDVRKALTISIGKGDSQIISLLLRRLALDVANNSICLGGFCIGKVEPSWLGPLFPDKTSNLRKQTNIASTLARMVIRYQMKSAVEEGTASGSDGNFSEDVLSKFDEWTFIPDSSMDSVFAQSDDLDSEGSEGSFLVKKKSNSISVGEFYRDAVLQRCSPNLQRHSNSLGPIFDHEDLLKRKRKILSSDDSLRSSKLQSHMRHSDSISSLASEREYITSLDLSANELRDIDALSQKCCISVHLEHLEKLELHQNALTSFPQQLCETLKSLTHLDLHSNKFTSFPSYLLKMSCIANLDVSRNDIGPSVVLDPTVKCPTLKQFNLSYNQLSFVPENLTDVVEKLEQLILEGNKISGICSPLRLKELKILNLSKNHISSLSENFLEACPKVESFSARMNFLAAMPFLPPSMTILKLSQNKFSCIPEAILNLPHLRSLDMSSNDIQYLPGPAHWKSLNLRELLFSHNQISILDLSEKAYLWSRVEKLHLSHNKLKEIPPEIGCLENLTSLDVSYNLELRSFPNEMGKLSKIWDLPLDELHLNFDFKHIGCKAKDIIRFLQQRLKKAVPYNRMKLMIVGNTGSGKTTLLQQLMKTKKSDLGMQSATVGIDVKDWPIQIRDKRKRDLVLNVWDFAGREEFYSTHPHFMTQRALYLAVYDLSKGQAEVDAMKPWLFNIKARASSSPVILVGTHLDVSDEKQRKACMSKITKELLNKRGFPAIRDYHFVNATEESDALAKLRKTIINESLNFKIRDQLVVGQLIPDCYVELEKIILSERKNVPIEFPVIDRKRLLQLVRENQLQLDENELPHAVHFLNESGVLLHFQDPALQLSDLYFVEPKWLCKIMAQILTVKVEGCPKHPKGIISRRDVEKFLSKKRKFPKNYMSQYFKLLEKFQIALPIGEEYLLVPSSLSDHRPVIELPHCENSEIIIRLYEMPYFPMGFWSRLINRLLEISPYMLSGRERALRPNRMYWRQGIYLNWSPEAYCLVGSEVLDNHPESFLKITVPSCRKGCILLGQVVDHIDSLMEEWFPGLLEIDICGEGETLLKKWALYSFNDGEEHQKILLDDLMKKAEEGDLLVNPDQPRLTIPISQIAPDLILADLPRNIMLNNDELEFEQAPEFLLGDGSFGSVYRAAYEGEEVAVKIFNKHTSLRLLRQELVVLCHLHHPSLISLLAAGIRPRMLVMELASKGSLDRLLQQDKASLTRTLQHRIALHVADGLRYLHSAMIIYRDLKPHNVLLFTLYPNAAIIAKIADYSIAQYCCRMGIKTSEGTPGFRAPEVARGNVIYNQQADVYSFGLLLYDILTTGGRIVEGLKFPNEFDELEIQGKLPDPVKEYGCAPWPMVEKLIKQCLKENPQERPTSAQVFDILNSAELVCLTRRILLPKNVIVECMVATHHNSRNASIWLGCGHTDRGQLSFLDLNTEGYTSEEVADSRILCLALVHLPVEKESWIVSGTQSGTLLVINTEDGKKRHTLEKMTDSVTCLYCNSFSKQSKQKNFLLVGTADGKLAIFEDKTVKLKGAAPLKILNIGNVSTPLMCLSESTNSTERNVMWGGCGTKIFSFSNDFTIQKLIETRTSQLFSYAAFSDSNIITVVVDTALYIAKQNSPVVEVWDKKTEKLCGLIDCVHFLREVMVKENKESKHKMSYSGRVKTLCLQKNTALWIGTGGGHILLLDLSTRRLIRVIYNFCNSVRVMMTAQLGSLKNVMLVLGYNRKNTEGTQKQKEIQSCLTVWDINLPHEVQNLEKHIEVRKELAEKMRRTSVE
- protocol-description: In Vitro LRRK2 Assay (LRRK2 Ki)
Scale: pKi equals -log10([C]), with [C] in mol/L.

Consider the compound CNc1nc(Nc2cnn(CC3(O)CC3)c2Cl)ncc1C(F)(F)F and give its measured pKi.
8.30

Could you do the same for CCNc1nc(Nc2cn(C(C)(C)c3nnc(C)o3)nc2Cl)ncc1C(F)(F)F , please?
8.43

Could you do the same for CNc1nc(Nc2cn(C(C)(C)c3ncccn3)nc2C)ncc1C(F)(F)F , please?
8.37

Could you do the same for CCNc1nc(Nc2cnn(C3CCOCC3)c2Cl)ncc1C#N , please?
8.21

Could you do the same for CNc1nc(Nc2cn(C(C)(C)CO)nc2C)ncc1C(F)(F)F , please?
8.32

Could you do the same for CNc1nc(Nc2cnn(C3CCOC[C@@H]3F)c2C)ncc1C(F)(F)F (stereo partly shown) , please?
9.22

Could you do the same for CNc1nc(Nc2cn(S(=O)(=O)CCOC)nc2C)ncc1C(F)(F)F , please?
8.73

Could you do the same for CNc1nc(Nc2cn(CCc3ccn(C)n3)nc2C)ncc1C(F)(F)F , please?
8.43

Could you do the same for CNc1nc(Nc2cn(C(C)(C)CC#N)nc2C)ncc1C(F)(F)F , please?
7.89

Could you do the same for CNc1nc(Nc2cnn(CC(C)c3ccn(C)n3)c2C)ncc1C(F)(F)F (stereo not shown) [Example 24] , please?
7.78

Could you do the same for CNc1nc(Nc2cnn(CCc3ccn(C)n3)c2C)ncc1C(F)(F)F , please?
8.70

Could you do the same for CNc1nc(Nc2cnn(C3CCOC[C@H]3F)c2C)ncc1C(F)(F)F (stereo in doubt) , please?
8.55

Could you do the same for CNc1nc(Nc2cnn(CC(C)c3ccn(C)n3)c2C)ncc1C(F)(F)F (stereo not shown) [Example 25] , please?
6.97

Could you do the same for CCNc1nc(Nc2cn(C(C)(C)c3nnc(CC)o3)nc2C)ncc1C(F)(F)F , please?
8.19

Could you do the same for CCNc1nc(Nc2cn(C3(C)COC3)nc2C)ncc1C(F)(F)F , please?
9.01

Could you do the same for CNc1nc(Nc2cn(C3CCOC[C@H]3F)nc2C)ncc1C(F)(F)F (stereo in doubt) , please?
9.22

Could you do the same for Cc1c(Nc2ncc(C#N)c(NC3CC3)n2)cnn1C1CCOCC1 , please?
8.14

Could you do the same for CCNc1nc(Nc2cn(S(=O)(=O)CCOC)nc2C)ncc1C(F)(F)F , please?
9.02

Could you do the same for CCNc1nc(Nc2cc(C(C)(C)C#N)nn2C)ncc1C(F)(F)F , please?
9.15

Could you do the same for CCNc1nc(Nc2cn(C(C)(C)c3nncn3C)nc2Cl)ncc1C(F)(F)F , please?
7.37

Could you do the same for CNc1nc(Nc2cn(C3(C)COC3)nc2C)ncc1C(F)(F)F , please?
8.32

Could you do the same for CCNc1nc(Nc2cn(C(C)(C)c3ncn(C)n3)nc2Cl)ncc1C(F)(F)F , please?
9.30

Could you do the same for CNc1nc(Nc2cn(C(C)(C)c3nc(C)cn3C)nc2C)ncc1C(F)(F)F , please?
6.85

Could you do the same for CNc1nc(Nc2cnn(S(=O)(=O)CCOC)c2C)ncc1C(F)(F)F , please?
8.19

Could you do the same for CNc1nc(Nc2cn(C(C)(C)c3ncc(C)o3)nc2C)ncc1C(F)(F)F , please?
8.42

Could you do the same for CCNc1nc(Nc2cn(C(C)(C)c3ncn(C(C)C)n3)nc2C)ncc1C(F)(F)F , please?
9.22

Could you do the same for Cc1nn(C(C)(C)C#N)cc1Nc1ncc(C#N)c(NC2CC2)n1 , please?
8.52

Could you do the same for CNc1nc(Nc2cc(C(C)(C)C#N)nn2C)ncc1C(F)(F)F , please?
8.07

Could you do the same for CCC(C#N)Cn1cc(Nc2ncc(C(F)(F)F)c(NC)n2)c(C)n1 (stereo not shown) , please?
8.39

Could you do the same for CCNc1nc(Nc2cnn(C(C)(C)c3nncn3C)c2Cl)ncc1C(F)(F)F , please?
8.96

Could you do the same for CCNc1nc(Nc2cc(C#N)nn2C)ncc1C(F)(F)F , please?
7.61
